Where do the numbers come from? From ChEMBL document CHEMBL2169849.

Tested on: Schistosoma mansoni
Assay: Antischistosomal activity against Schistosoma mansoni NTS incubated for 72 hrs
Format: functional, organism-based
Items are presented alongside their recorded IC50.

These recorded examples may help you get a feel for the data.
compound	IC50
C[C@]12OO[C@](C)(OO1)C2CCC(=O)NC12CC3CC(CC(C3)C1)C2 (stereo partly specified)	0.8 µM
O=C(C1CCCCC1)N1CC(=O)N2CCc3ccccc3C2C1 (stereo unspecified)	2.2 µM

Switching to the query record.
Given the compound C1COC(OOC23CC4CC(CC(C4)C2)C3)C1 (stereo unspecified) , what is its reported IC50?
> 126 µM

----------
Test system: Schistosoma mansoni
Assay: Antischistosomal activity against Schistosoma mansoni NTS incubated for 72 hrs
Type: functional, organism-based
Threshold 5 µM: IC50 strictly smaller gives Condition met, otherwise Condition not met.

Example entries begin here.
compound	subject.of.test	group
Cc1ccc(C(C)C2[C@]3(C)OO[C@@]2(C)OO3)cc1 (stereo not given in full)	Schistosoma mansoni	Condition met
CC12CCC3[C@@](C)(OO[C@]3(c3ccc(Br)cc3)O1)O2	Schistosoma mansoni	Condition met
CCOC(=O)CC(C)C(C#N)(C#N)OOC(C)(C)C (stereo not given)	Schistosoma mansoni	Condition not met
C[C@]12OO[C@](C)(OO1)C2CCC(=O)N1CCCC1 (stereo not given in full)	Schistosoma mansoni	Condition not met
CC12CCC3(Cc4ccc([N+](=O)[O-])cc4)[C@@](C)(OO[C@]3(C)O1)O2	Schistosoma mansoni	Condition not met
C[C@]12OO[C@](C)(OO1)C2C12CC3CC(CC(C3)C1)C2 (stereo not given in full)	Schistosoma mansoni	Condition met

Below 5 µM on IC50? Entry CCOC(=O)C(CCC#N)(OOC(C)(C)C)C(C)=O (stereo not given)
Condition not met

Below 5 µM on IC50? Entry CC12CCC3(CC4CO4)[C@@](C)(OO[C@]3(C)O1)O2 (stereo not given in full)
Condition not met

----------
System: Schistosoma mansoni
Assay: Antischistosomal activity against Schistosoma mansoni NTS incubated for 72 hrs
Type: functional, organism-based
reported.property: IC50
Provide a numeric answer, followed by its unit.

These recorded examples may help you get a feel for the data.
compound	IC50
CC12CCC3(CCC(=O)NC45CC6CC(CC(C6)C4)C5)[C@@](C)(OO[C@]3(C)O1)O2	213 µM
CCCCC(OOC(C)(C)C)(C(C)=O)C(=O)OCC (stereo unspecified)	26.5 µM
CCOC(=O)C(Cc1ccccc1)(OOC(C)(C)C)C(C)=O (stereo unspecified)	15.1 µM
Cc1ccc(CC2[C@]3(C)OO[C@@]2(C)OO3)cc1 (stereo partly specified)	1.2 µM
COc1ccc(CC(C#N)(C#N)OOC(C)(C)C)cc1	8 µM

Switching to the query record.
Given the compound CC12CCC3[C@@](C)(OO[C@]3(c3ccc(Cl)cc3)O1)O2 , what is its reported IC50?
16 µM

----------
System: Schistosoma mansoni
Assay: Antischistosomal activity against Schistosoma mansoni NTS incubated for 72 hrs
Type: functional, organism-based
Threshold 30 µM: IC50 strictly smaller gives Condition met, otherwise Condition not met.

Example entries begin here.
compound	group
CC(c1ccc(Br)cc1)C1[C@]2(C)OO[C@@]1(C)OO2 (some centres not stated)	Condition met
CC12CCC3(CCC#N)[C@@](C)(OO[C@]3(C)O1)O2	Condition not met
Cc1ccc([C@]23OO[C@@]4(C)OC(C)(CCC42)O3)cc1	Condition not met
CC12CCC3(C)[C@@](C)(OO[C@]3(C)O1)O2	Condition not met
CC(C)(C)OOC(C#N)(C#N)Cc1ccc(Cl)cc1	Condition met

Below 30 µM on IC50? Entry CC12CCC3(CCC(=O)O)[C@@](C)(OO[C@]3(C)O1)O2
Condition not met

Below 30 µM on IC50? Entry CCOC(=O)C(C#N)(CC(C)=O)OOC(C)(C)C (configuration not stated)
Condition not met

Below 30 µM on IC50? Entry CCCCC12CCC3(C)O[C@]1(C)OO[C@]2(C)O3
Condition met

Below 30 µM on IC50? Entry CCOC(=O)CCC12CCC3(C)O[C@]1(C)OO[C@]2(C)O3
Condition met

Below 30 µM on IC50? Entry CC(C)NC(=O)CCC1[C@]2(C)OO[C@@]1(C)OO2 (some centres not stated)
Condition met

Below 30 µM on IC50? Entry C[C@]12OO[C@](C)(OO1)C2CCC(=O)N1CCCCCC1 (some centres not stated)
Condition met

Below 30 µM on IC50? Entry COc1ccc([C@]23OO[C@@]4(C)OC(C)(CCC42)O3)cc1
Condition met

----------
Items are presented alongside their recorded Activity.
Test system: Schistosoma mansoni
Assay: Antischistosomal activity against adult Schistosoma mansoni infected NMRI mouse adult infection model assessed as reduction in female worm burden at 400 mg/kg administered as single dose starting from 49 days post infection
Format: functional
Design: scale not given: the % may be the effect or the level left
# value in %; strip the unit string

compound	Activity [%]
CC12CCC3(Cc4ccc([N+](=O)[O-])cc4)[C@@](C)(OO[C@]3(C)O1)O2	9.6
CC12CCC3[C@@](C)(OO[C@]3(c3ccccc3)O1)O2	15.2
C[C@]12OO[C@](C)(OO1)C2C12CC3CC(CC(C3)C1)C2 (stereo partly drawn)	77.8
CC12CCC3[C@@](C)(OO[C@]3(c3ccc(Br)cc3)O1)O2	36.4

Please tell me: Activity of COc1ccc([C@]23OO[C@@]4(C)OC(C)(CCC42)O3)cc1 , system Schistosoma mansoni?
82.9

Please tell me: Activity of CC(C)(C)OOC(C#N)(C#N)Cc1ccccc1 , system Schistosoma mansoni?
0

Please tell me: Activity of CC(c1ccccc1)C1[C@]2(C)OO[C@@]1(C)OO2 (stereo partly drawn) , system Schistosoma mansoni?
4.6

Please tell me: Activity of Cc1ccc(CC23CCC4(C)O[C@]2(C)OO[C@]3(C)O4)cc1 , system Schistosoma mansoni?
0

----------
Tested on: Schistosoma mansoni
Assay: Antischistosomal activity against Schistosoma mansoni NTS incubated for 72 hrs
Type: functional, organism-based
pIC50: −log10 of the molar value.
Items are presented alongside their recorded pIC50.

compound	pIC50
C=CCC(C#N)(OOC(C)(C)C)C(=O)OCC (stereo not drawn)	4.36

Please tell me: pIC50 of CCOC(=O)CCC(OOC(C)(C)C)(C(C)=O)C(C)=O , system Schistosoma mansoni?
< 3.98

Please tell me: pIC50 of CC12CCC3(CCC(=O)N4CCOCC4)[C@@](C)(OO[C@]3(C)O1)O2 , system Schistosoma mansoni?
< 3.54

----------
Tested on: Schistosoma mansoni
Assay: Antischistosomal activity against Schistosoma mansoni NTS incubated for 72 hrs
Assay type: functional, organism-based
Items are presented alongside their recorded pIC50.
Scale explanation: pIC50 corresponds to minus log10 of a concentration expressed in moles per litre.

compound	recorded.result
C[C@]12OO[C@](C)(OO1)C2CCC(=O)NCc1ccccc1 (some centres not stated)	4.96
CC12CCC3[C@@](C)(OO[C@]3(C)O1)O2	5.05
CC(c1ccc2ccccc2c1)C1[C@]2(C)OO[C@@]1(C)OO2 (some centres not stated)	5.15
CC(c1ccccc1)C1[C@]2(C)OO[C@@]1(C)OO2 (some centres not stated)	5.96
CC(C)C(C#N)(C#N)OOC(C)(C)C	3.53

Switching to the query record.
Please tell me: pIC50 of C[C@]12OO[C@](C)(OO1)C2CCC(=O)NCCc1ccccc1 (some centres not stated) , system Schistosoma mansoni?
5.21

----------
Items are presented alongside their recorded IC50.
Test system: Schistosoma mansoni
Test: Antischistosomal activity against adult Schistosoma mansoni schistosomes incubated for 72 hrs in presence of 120 uM Fe(3)-hemin
Assay type: functional, organism-based
# value in µM; strip the unit string

These recorded examples may help you get a feel for the data.
molecule	subject.of.test	value.unit	IC50
C[C@H]1[C@H](OC(=O)CCC(=O)O)O[C@@H]2O[C@@]3(C)CC[C@H]4[C@H](C)CC[C@@H]1[C@@]24OO3 [ARTESUNATE]	Schistosoma mansoni	µM	38.7
CC(c1ccc(Cl)cc1)C1[C@]2(C)OO[C@@]1(C)OO2 (stereo not given in full)	Schistosoma mansoni	µM	25.3
C[C@]12OO[C@](C)(OO1)C2CCC(=O)NC12CC3CC(CC(C3)C1)C2 (stereo not given in full)	Schistosoma mansoni	µM	39.3
Cc1ccc(CC23CCC4(C)O[C@]2(C)OO[C@]3(C)O4)cc1	Schistosoma mansoni	µM	13.4
CC(C)(C)OOC(C#N)(C#N)Cc1ccc(Cl)cc1	Schistosoma mansoni	µM	17.9
CC(c1ccccc1)C1[C@]2(C)OO[C@@]1(C)OO2 (stereo not given in full)	Schistosoma mansoni	µM	12.9
Cc1ccc(C(C)C2[C@]3(C)OO[C@@]2(C)OO3)cc1 (stereo not given in full)	Schistosoma mansoni	µM	41.2
CC(c1ccc(Br)cc1)C1[C@]2(C)OO[C@@]1(C)OO2 (stereo not given in full)	Schistosoma mansoni	µM	47.7

Switching to the query record.
Given the molecule CCOC(=O)CCC12CCC3(C)O[C@]1(C)OO[C@]2(C)O3 , what is its reported IC50?
92.2
